Quick reference: GI50 of the listed items.
Molecular target: KIF5B-RET-BaF3 (Homo sapiens)
Construct: fused on or other part: P33176 (Kinesin-1 heavy chain)
Sequence (P07949 whole entry, change not shown, the tested form may be a part): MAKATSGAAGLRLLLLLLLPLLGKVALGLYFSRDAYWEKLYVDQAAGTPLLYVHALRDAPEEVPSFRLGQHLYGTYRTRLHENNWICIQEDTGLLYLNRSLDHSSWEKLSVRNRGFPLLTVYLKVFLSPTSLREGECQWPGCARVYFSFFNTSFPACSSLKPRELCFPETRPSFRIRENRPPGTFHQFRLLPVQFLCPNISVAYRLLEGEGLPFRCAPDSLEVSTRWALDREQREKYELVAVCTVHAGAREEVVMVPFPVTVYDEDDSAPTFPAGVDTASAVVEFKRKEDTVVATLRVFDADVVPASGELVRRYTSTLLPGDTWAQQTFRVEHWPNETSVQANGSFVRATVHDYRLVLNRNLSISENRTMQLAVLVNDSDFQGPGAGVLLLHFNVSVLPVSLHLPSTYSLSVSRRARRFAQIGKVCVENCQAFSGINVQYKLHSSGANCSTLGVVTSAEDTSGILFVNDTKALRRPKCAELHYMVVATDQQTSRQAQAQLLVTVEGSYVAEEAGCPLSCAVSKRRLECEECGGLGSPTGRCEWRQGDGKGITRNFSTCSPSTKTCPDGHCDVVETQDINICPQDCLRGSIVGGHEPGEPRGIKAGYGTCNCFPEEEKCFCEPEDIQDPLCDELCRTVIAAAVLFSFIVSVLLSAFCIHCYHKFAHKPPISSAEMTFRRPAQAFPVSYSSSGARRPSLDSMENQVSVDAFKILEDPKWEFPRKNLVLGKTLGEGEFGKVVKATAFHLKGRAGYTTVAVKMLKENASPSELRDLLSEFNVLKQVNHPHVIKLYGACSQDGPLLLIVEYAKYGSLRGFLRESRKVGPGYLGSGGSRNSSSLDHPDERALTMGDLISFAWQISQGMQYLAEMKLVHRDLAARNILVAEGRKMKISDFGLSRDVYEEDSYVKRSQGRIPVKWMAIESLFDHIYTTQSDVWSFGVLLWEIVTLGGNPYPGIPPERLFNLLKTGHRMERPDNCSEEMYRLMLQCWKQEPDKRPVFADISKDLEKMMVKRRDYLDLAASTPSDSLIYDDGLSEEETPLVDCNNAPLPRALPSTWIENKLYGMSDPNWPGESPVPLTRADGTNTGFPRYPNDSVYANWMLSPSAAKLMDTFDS
Experiment: Growth inhibition of KIF5B-RET-BaF3 cells stably transfected with kinase (MTS)
Assay type: cell-based
Conditions: 48 h, read-out: KIF5B-RET (IC50/nM)
Record the value in nM, omitting the unit from your answer.

Below are worked cases with known answers.
| smiles text | GI50 / nM |
| --- | --- |
| Cc1ccc(C(=O)Nc2ccc(CN3CCN(C)CC3)c(C(F)(F)F)c2)cc1Oc1nc(-c2ccsc2)nc2cc[nH]c12 | 1500 |
| Cc1ccc(Oc2nc(-c3ccc(Cl)cc3)nc3nn(C)cc23)cc1C(=O)Nc1ccc(CN2CCN(C)CC2)c(C(F)(F)F)c1 | 2320 |
| Cc1ccc(Oc2cc(-c3ccncc3)nc3sccc23)cc1C(=O)Nc1ccc(CN2CCN(C)CC2)c(C(F)(F)F)c1 | 405 |

The measured GI50 associated with Cc1ccc(C(=O)Nc2ccc(CN3CCN(C)CC3)c(C(F)(F)F)c2)cc1Oc1nc(-c2ccc(O)cc2)nc2cc[nH]c12 reads 2900

The measured GI50 associated with Cc1ccc(Oc2nc(-c3ccsc3)nc3ccn(C)c23)cc1NC(=O)c1ccc(CN2CCN(C)CC2)c(C(F)(F)F)c1 reads 1320

The measured GI50 associated with Cc1ccc(Oc2nc(-c3ccncc3)nc3[nH]ncc23)cc1NC(=O)c1ccc(CN2CCN(C)CC2)c(C(F)(F)F)c1 reads 44.2
